- ASSAYED_SYSTEM: Chk-1 kinase (Homo sapiens (Human), UniProt O14757)
- Sequence (O14757 whole entry): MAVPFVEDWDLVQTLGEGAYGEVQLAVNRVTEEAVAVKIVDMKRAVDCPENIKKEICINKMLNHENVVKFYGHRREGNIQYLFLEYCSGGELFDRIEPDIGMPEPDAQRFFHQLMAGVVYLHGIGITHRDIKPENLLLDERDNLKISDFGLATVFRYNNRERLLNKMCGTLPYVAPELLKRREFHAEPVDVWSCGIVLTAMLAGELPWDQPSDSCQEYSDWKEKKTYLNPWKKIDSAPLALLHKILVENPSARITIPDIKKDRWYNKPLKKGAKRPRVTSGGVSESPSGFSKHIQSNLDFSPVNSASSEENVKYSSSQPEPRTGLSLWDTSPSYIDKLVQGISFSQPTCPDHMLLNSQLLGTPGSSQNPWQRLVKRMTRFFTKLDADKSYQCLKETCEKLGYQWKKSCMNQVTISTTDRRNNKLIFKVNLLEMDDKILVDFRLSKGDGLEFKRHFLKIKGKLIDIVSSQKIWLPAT
- TEST_DETAILS: Chk-1 kinase inhibiting activity (33P-ATP filter assay, CHKtide substrate)
- Type: biochemical
- CONDITION_SUMMARY: ranges given; read-out: IC50 values against Chk-1 kinase
pIC50: −log10 of the molar value. Counter-ions that a name gives are not always drawn.

COMPOUND: N#Cc1cnc(NC(=O)Nc2ccc(CCNCc3cccc(F)c3)c(Cl)c2)cn1 [Example 9]
ASSAYED_SYSTEM: Chk-1 kinase (Homo sapiens (Human), UniProt O14757)
pIC50: > 8.00

COMPOUND: CCOc1cc(CCNCc2ccc(F)cc2)c(Cl)cc1NC(=O)Nc1cnc(C#N)cn1 [Example 45, hydrochloride]
ASSAYED_SYSTEM: Chk-1 kinase (Homo sapiens (Human), UniProt O14757)
pIC50: > 8.00

COMPOUND: COc1ccccc1CNCCc1cc(OC)c(NC(=O)Nc2cnc(C#N)cn2)cc1Cl [Example 55, hydrochloride]
ASSAYED_SYSTEM: Chk-1 kinase (Homo sapiens (Human), UniProt O14757)
pIC50: > 8.00

COMPOUND: N#Cc1cnc(NC(=O)Nc2ccc(CCNCc3cccc(Cl)c3)c(Cl)c2)cn1 [Example 13, hydrochloride]
ASSAYED_SYSTEM: Chk-1 kinase (Homo sapiens (Human), UniProt O14757)
pIC50: 7.00 to 8.00

COMPOUND: CN(CCc1ccc(NC(=O)Nc2cnc(C#N)cn2)cc1Cl)Cc1ccc(F)cc1 [Example 11]
ASSAYED_SYSTEM: Chk-1 kinase (Homo sapiens (Human), UniProt O14757)
pIC50: 6.00 to 7.00

COMPOUND: N#Cc1cnc(NC(=O)Nc2ccc(CCNCc3ccc(N4CCOCC4)cc3)c(Cl)c2)cn1 [Example 25]
ASSAYED_SYSTEM: Chk-1 kinase (Homo sapiens (Human), UniProt O14757)
pIC50: 7.00 to 8.00

COMPOUND: C[C@H](NCCc1ccc(NC(=O)Nc2cnc(C#N)cn2)cc1Cl)c1ccc(F)cc1 [Example 18, hydrochloride]
ASSAYED_SYSTEM: Chk-1 kinase (Homo sapiens (Human), UniProt O14757)
pIC50: 7.00 to 8.00

COMPOUND: COc1ccc(CNCCc2ccc(NC(=O)Nc3cnc(C#N)cn3)cc2Cl)cc1 [Example 15]
ASSAYED_SYSTEM: Chk-1 kinase (Homo sapiens (Human), UniProt O14757)
pIC50: > 8.00

COMPOUND: COc1cc(CCNCc2cccc(F)c2)c(Cl)cc1NC(=O)Nc1cnc(C#N)cn1 [Example 19, hydrochloride]
ASSAYED_SYSTEM: Chk-1 kinase (Homo sapiens (Human), UniProt O14757)
pIC50: > 8.00

COMPOUND: COc1ccc(CNCc2ccc(NC(=O)Nc3cnc(C#N)cn3)c(OC)c2)cc1 [Example 60]
ASSAYED_SYSTEM: Chk-1 kinase (Homo sapiens (Human), UniProt O14757)
pIC50: > 8.00

COMPOUND: COc1cc(CCN[C@H](C)c2ccc(F)cc2)ccc1NC(=O)Nc1cnc(C#N)cn1 [Example 43]
ASSAYED_SYSTEM: Chk-1 kinase (Homo sapiens (Human), UniProt O14757)
pIC50: > 8.00

COMPOUND: COc1cc(CNCc2ccc(F)cc2)ccc1NC(=O)Nc1cnc(C#N)cn1 [Example 57, hydrochloride]
ASSAYED_SYSTEM: Chk-1 kinase (Homo sapiens (Human), UniProt O14757)
pIC50: > 8.00

COMPOUND: COc1cc(CCNCCc2ccc(F)cc2)ccc1NC(=O)Nc1cnc(C#N)cn1 [Example 31]
ASSAYED_SYSTEM: Chk-1 kinase (Homo sapiens (Human), UniProt O14757)
pIC50: > 8.00

COMPOUND: COc1cc(CCNCc2ccc(F)cc2)ccc1NC(=O)Nc1cnc(C#N)cn1 [Example 20]
ASSAYED_SYSTEM: Chk-1 kinase (Homo sapiens (Human), UniProt O14757)
pIC50: > 8.00

COMPOUND: COc1cc(CCNCc2ccc3c(c2)OCO3)c(Cl)cc1NC(=O)Nc1cnc(C#N)cn1 [Example 54, hydrochloride]
ASSAYED_SYSTEM: Chk-1 kinase (Homo sapiens (Human), UniProt O14757)
pIC50: > 8.00

COMPOUND: N#Cc1cnc(NC(=O)Nc2ccc(CCNCc3ccccc3F)c(Cl)c2)cn1 [Example 23]
ASSAYED_SYSTEM: Chk-1 kinase (Homo sapiens (Human), UniProt O14757)
pIC50: 7.00 to 8.00

COMPOUND: N#Cc1cnc(NC(=O)Nc2ccc(CCNCc3ccccc3Cl)c(Cl)c2)cn1 [Example 10]
ASSAYED_SYSTEM: Chk-1 kinase (Homo sapiens (Human), UniProt O14757)
pIC50: 7.00 to 8.00

COMPOUND: COc1ccccc1CNCCc1ccc(NC(=O)Nc2cnc(C#N)cn2)cc1Cl [Example 16]
ASSAYED_SYSTEM: Chk-1 kinase (Homo sapiens (Human), UniProt O14757)
pIC50: 7.00 to 8.00

COMPOUND: N#Cc1cnc(NC(=O)Nc2ccc(CNCc3ccccc3)cc2)cn1 [Example 29]
ASSAYED_SYSTEM: Chk-1 kinase (Homo sapiens (Human), UniProt O14757)
pIC50: 6.00 to 7.00

COMPOUND: N#Cc1cnc(NC(=O)Nc2ccc(CCNCCc3ccc(F)cc3)c(Cl)c2)cn1 [Example 7]
ASSAYED_SYSTEM: Chk-1 kinase (Homo sapiens (Human), UniProt O14757)
pIC50: 7.00 to 8.00

COMPOUND: COc1cc(CCNCc2ccc(N3CCN(C)CC3)cc2)ccc1NC(=O)Nc1cnc(C#N)cn1 [Example 51]
ASSAYED_SYSTEM: Chk-1 kinase (Homo sapiens (Human), UniProt O14757)
pIC50: > 8.00

COMPOUND: CC(C)Oc1cc(CCNCc2ccc(F)cc2)c(Cl)cc1NC(=O)Nc1cnc(C#N)cn1 [Example 46, hydrochloride]
ASSAYED_SYSTEM: Chk-1 kinase (Homo sapiens (Human), UniProt O14757)
pIC50: > 8.00

COMPOUND: COc1cc(CCNCc2ccc(N3CCNCC3)cc2)c(Cl)cc1NC(=O)Nc1cnc(C#N)cn1 [Example 64, hydrochloride]
ASSAYED_SYSTEM: Chk-1 kinase (Homo sapiens (Human), UniProt O14757)
pIC50: > 8.00

COMPOUND: COc1cc(CNCc2ccccc2)c(Cl)cc1NC(=O)Nc1cnc(C#N)cn1 [Example 56, hydrochloride]
ASSAYED_SYSTEM: Chk-1 kinase (Homo sapiens (Human), UniProt O14757)
pIC50: > 8.00

COMPOUND: N#Cc1cnc(NC(=O)Nc2ccc(CCNCc3ccccc3)cc2)cn1 [Example 1]
ASSAYED_SYSTEM: Chk-1 kinase (Homo sapiens (Human), UniProt O14757)
pIC50: 6.00 to 7.00

COMPOUND: COc1cc(CCNCc2ccc(F)cc2)c(Br)cc1NC(=O)Nc1cnc(C#N)cn1 [Example 42, hydrochloride]
ASSAYED_SYSTEM: Chk-1 kinase (Homo sapiens (Human), UniProt O14757)
pIC50: > 8.00

COMPOUND: COc1cccc(CNCCc2cc(OC)c(NC(=O)Nc3cnc(C#N)cn3)cc2Cl)c1 [Example 48, hydrochloride]
ASSAYED_SYSTEM: Chk-1 kinase (Homo sapiens (Human), UniProt O14757)
pIC50: > 8.00

COMPOUND: N#Cc1cnc(NC(=O)Nc2ccc(CCNCc3ccc(F)cc3)cc2)cn1 [Example 2]
ASSAYED_SYSTEM: Chk-1 kinase (Homo sapiens (Human), UniProt O14757)
pIC50: 7.00 to 8.00

COMPOUND: N#Cc1cnc(NC(=O)Nc2ccc(CCNCc3ccc(F)c(F)c3)c(Cl)c2)cn1 [Example 40]
ASSAYED_SYSTEM: Chk-1 kinase (Homo sapiens (Human), UniProt O14757)
pIC50: > 8.00

COMPOUND: N#Cc1cnc(NC(=O)Nc2ccc(OCCNCc3ccc(F)cc3F)c(Cl)c2)cn1 [Example 6]
ASSAYED_SYSTEM: Chk-1 kinase (Homo sapiens (Human), UniProt O14757)
pIC50: 7.00 to 8.00

COMPOUND: COc1ccccc1CNCc1ccc(NC(=O)Nc2cnc(C#N)cn2)c(OC)c1 [Example 62]
ASSAYED_SYSTEM: Chk-1 kinase (Homo sapiens (Human), UniProt O14757)
pIC50: > 8.00

COMPOUND: C[C@@H](NCCc1ccc(NC(=O)Nc2cnc(C#N)cn2)cc1Cl)c1ccc(F)cc1 [Example 24, hydrochloride]
ASSAYED_SYSTEM: Chk-1 kinase (Homo sapiens (Human), UniProt O14757)
pIC50: 7.00 to 8.00
